TGI overview
tested on: SNB-75 CNS; assay: NCI tumour cell line growth inhibition, 48 h
measuredQuantity: TGI

{"compound": "Cc1ccc(S(=O)(=O)N=Nc2c(O)[nH]c3cc(O)c(C(=O)O)cc23)cc1", "systemName": "SNB-75 CNS", "measuredQuantity": "TGI", "result": "> 100 µM"}
{"compound": "O=C(/C=C/c1ccccc1)Nc1ncc(Cc2ccccc2Cl)s1", "systemName": "SNB-75 CNS", "measuredQuantity": "TGI", "result": "2.16 µM"}
{"compound": "CC12C=CC(C)(C3C(=O)C4C(C(=O)C31)C1(C)C=CC4(C)S1=O)S2=O (stereo unspecified)", "systemName": "SNB-75 CNS", "measuredQuantity": "TGI", "result": "> 100 µM"}
{"compound": "O=C(O)c1c2c(cc3c1CC(Cc1ccccc1)C3=O)CCC2 (stereo unspecified)", "systemName": "SNB-75 CNS", "measuredQuantity": "TGI", "result": "> 100 µM"}
{"compound": "CCCCCCCCCCCCCP(=O)(O)O", "systemName": "SNB-75 CNS", "measuredQuantity": "TGI", "result": "> 100 µM"}
{"compound": "O=C(O)c1ccc(CN2CCC(CN[C@@H]3C[C@H]3c3ccccc3)CC2)cc1", "systemName": "SNB-75 CNS", "measuredQuantity": "TGI", "result": "> 100 µM"}
{"compound": "COc1cc(NCC(C#N)C#N)ccc1N=Nc1ccc(Cl)cc1", "systemName": "SNB-75 CNS", "measuredQuantity": "TGI", "result": "90.1 µM"}
{"compound": "COc1ccc2c(c1)OC1=C(C(=O)OC1)C2c1cc(OC)c2c(c1)OCCO2 (stereo unspecified)", "systemName": "SNB-75 CNS", "measuredQuantity": "TGI", "result": "> 100 µM"}
{"compound": "CN(C)C/C=C/C(=O)Nc1ccc(C(=O)N[C@@]2(C)CCC[C@@H](Nc3ncc(Cl)c(-c4c[nH]c5ccccc45)n3)C2)nc1", "systemName": "SNB-75 CNS", "measuredQuantity": "TGI", "result": "0.0427 µM"}
{"compound": "CC(=O)C1C(c2ccccc2)C2(C)OC(=O)C(C#N)C12C (stereo unspecified)", "systemName": "SNB-75 CNS", "measuredQuantity": "TGI", "result": "> 100 µM"}
{"compound": "OC(CC1CCCCN1)c1ccc2c(c1)oc1ccccc12 (stereo unspecified)", "systemName": "SNB-75 CNS", "measuredQuantity": "TGI", "result": "> 100 µM"}
{"compound": "O=C(CSc1nnc(-c2ccccn2)s1)N/N=C/c1ccccc1", "systemName": "SNB-75 CNS", "measuredQuantity": "TGI", "result": "17 µM"}
{"compound": "O=NNc1ccc2ccccc2n1", "systemName": "SNB-75 CNS", "measuredQuantity": "TGI", "result": "> 100 µM"}
{"compound": "NC1=NN(c2ccccc2)C(=O)C1C(=O)CCC(=O)Nc1cccc(Cl)c1 (stereo unspecified)", "systemName": "SNB-75 CNS", "measuredQuantity": "TGI", "result": "> 100 µM"}
{"compound": "C#CC1(O)C(COP(=O)(O)OCC(COP(=O)(O)OCC2OC(n3cc(F)c(=O)[nH]c3=O)CC2O)OCCCCCCCCCCCCCCCCCC)OC(n2ccc(N)nc2=O)C1O (stereo unspecified)", "systemName": "SNB-75 CNS", "measuredQuantity": "TGI", "result": "> 55.3 µM"}
{"compound": "CCCCCCNCCc1cnc[nH]1", "systemName": "SNB-75 CNS", "measuredQuantity": "TGI", "result": "> 100 µM"}
{"compound": "CC1(O)C(C)(O)C2(C)O[Te]3(OC12C)OC1(C)C(C)(O)C(C)(O)C1(C)O3 (stereo unspecified)", "systemName": "SNB-75 CNS", "measuredQuantity": "TGI", "result": "> 100 µM"}
{"compound": "Cc1ccc(C(=O)O)c(/C=C2\\Cc3ccc(C)cc3C2=O)c1", "systemName": "SNB-75 CNS", "measuredQuantity": "TGI", "result": "> 100 µM"}
{"compound": "CN(c1ccc(NC(=O)Nc2c(Cl)cccc2Cl)cc1)c1ccnc(Nc2cccc(CS(C)(=O)=O)c2)n1", "systemName": "SNB-75 CNS", "measuredQuantity": "TGI", "result": "7 µM"}
{"compound": "CNc1ncccc1Nc1cc(=O)n2c3cccnc3n(C)c2c1", "systemName": "SNB-75 CNS", "measuredQuantity": "TGI", "result": "78.1 µM"}
{"compound": "COc1ccc(NC(=O)CC/C(CC(=O)c2ccco2)=N/NC(=O)C(N)=O)cc1", "systemName": "SNB-75 CNS", "measuredQuantity": "TGI", "result": "> 100 µM"}

# credit: PubChem BioAssay (NCI)
